meta.source: ChEMBL document CHEMBL1141157

Measured Ki by item
Target: Matrix metalloproteinase-9 (Homo sapiens)
Sequence (P14780 whole entry): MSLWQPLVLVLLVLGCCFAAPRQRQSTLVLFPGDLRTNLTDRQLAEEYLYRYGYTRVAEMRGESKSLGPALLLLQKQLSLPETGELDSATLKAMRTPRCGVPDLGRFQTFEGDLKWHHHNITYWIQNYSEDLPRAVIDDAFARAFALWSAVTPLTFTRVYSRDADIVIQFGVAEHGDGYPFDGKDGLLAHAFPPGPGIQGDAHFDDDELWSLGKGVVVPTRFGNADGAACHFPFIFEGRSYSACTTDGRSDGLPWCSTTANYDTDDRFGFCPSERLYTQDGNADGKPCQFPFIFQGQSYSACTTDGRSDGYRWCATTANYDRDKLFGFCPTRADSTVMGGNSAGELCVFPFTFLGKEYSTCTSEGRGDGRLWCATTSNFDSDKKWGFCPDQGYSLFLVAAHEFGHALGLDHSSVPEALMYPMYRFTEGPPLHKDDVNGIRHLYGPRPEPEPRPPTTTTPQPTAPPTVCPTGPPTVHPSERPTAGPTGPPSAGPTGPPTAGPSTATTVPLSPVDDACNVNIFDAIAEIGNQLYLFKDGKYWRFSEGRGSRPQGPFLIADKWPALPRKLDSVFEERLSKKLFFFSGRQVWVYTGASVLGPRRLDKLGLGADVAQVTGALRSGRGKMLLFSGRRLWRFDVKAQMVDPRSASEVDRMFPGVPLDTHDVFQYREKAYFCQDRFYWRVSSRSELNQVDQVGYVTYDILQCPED
Assay: Inhibition of MOCAc-Pro-Leu-Gly-Leu-A2p (Dnp)-Ala-Arg-NH2 binding to human matrix metalloprotease-9 (MMP-9)
Settings: read-out: Log 1/Ki (converted)
Give just the number in nM; leave the unit off.

Study these solved cases before continuing.
MOLECULE	RECORDED_MEASUREMENT
CCN(CC)CCOP(=O)(c1ccc(OC)cc1)N1Cc2ccccc2C[C@@H]1C(=O)NO (stereo not given in full)	16.7
CCOP(=O)(c1ccc(OC)cc1)N1CCN(C(=O)OCc2ccccc2)C[C@@H]1C(=O)NO (stereo not given in full)	5.2

// Ki lookup, key: CCOP(=O)(c1ccc(OC)cc1)N1Cc2cc(N)ccc2C[C@@H]1C(=O)NO (stereo not given in full) 11

// Ki lookup, key: CCOP(=O)(c1ccc(F)cc1)N1Cc2ccccc2C[C@@H]1C(=O)NO (stereo not given in full) 51.9

// Ki lookup, key: CCOP(=O)(c1ccc(OC)cc1)N1CC2Nc3ccccc3C2C[C@@H]1C(=O)NO (stereo not given in full) 1.13

// Ki lookup, key: COc1ccc(P(=O)(OCCc2ccc(-c3ccccc3)cc2)N2Cc3ccccc3C[C@@H]2C(=O)NO)cc1 (stereo not given in full) 6.47
